- Tgt: IMP-1 (Serratia marcescens, UniProt P52699)
- Sequence (P52699 whole entry, looked up, species assumed): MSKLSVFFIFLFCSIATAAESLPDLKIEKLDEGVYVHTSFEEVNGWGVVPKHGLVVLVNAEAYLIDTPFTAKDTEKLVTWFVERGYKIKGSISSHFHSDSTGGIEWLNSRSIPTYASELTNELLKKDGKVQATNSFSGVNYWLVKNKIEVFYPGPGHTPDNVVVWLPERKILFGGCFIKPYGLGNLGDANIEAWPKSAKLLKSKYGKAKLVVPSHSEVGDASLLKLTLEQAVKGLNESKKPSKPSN
- Assay: biochemical
- Assay type: biochemical
- Condition details: CCF2-FA substrate, 2 hours at 25° C; read-out: IMP-1 IC50
Measured parameter: pIC50
// pIC50 is dimensionless: -log10 of concentration (M)

The reported pIC50 of the molecule CNC(=O)c1nc2c(-c3ccc(S(=O)(=O)C4CNC4)c(S(N)(=O)=O)c3-c3nn[nH]n3)cccc2[nH]1 was 8.78

The reported pIC50 of the molecule CC(C)(N)CS(=O)(=O)c1ccc(-c2cccc3sc(N)nc23)c(-c2nn[nH]n2)c1S(N)(=O)=O was 9.30

The reported pIC50 of the molecule NS(=O)(=O)c1c(S(=O)(=O)C2CNC2)ccc(-c2cncc3[nH]c(=O)[nH]c23)c1-c1nnn[nH]1 was 8.54

The reported pIC50 of the molecule NC(=O)c1ccc(-c2ccc(S(=O)(=O)C3CNC3)c(S(N)(=O)=O)c2-c2nn[nH]n2)c2nc(N)sc12 was 9.56

The reported pIC50 of the molecule NCCS(=O)(=O)c1ccc(-c2c[nH]c3nccnc23)c(-c2nnn[nH]2)c1S(N)(=O)=O.O=C(O)C(F)(F)F [Example 136, 2,2,2-trifluoroacetate] was 8.77

The reported pIC50 of the molecule NCCS(=O)(=O)c1ccc(-c2cnc(O)nc2)c(-c2nnn[nH]2)c1S(N)(=O)=O.O=C(O)C(F)(F)F [Example 137, 2,2,2-trifluoroacetate] was 7.49

The reported pIC50 of the molecule NS(=O)(=O)c1c(S(=O)(=O)C2CNC2)ccc(-c2cccc3sc(C(=O)O)nc23)c1-c1nnn[nH]1 was 9.45

The reported pIC50 of the molecule CS(=O)(=O)c1ccc(-c2cccc3nc(N)[nH]c23)c(-c2nn[nH]n2)c1S(N)(=O)=O was 8.13

Where do these numbers come from? They come from patent US10227331B2.
